# SUBJECT OF TEST: OR51E1 olfactory receptor (Homo sapiens, UniProt Q8TCB6, K299R)
# Construct: expressed in transfected cells
# Sequence (Q8TCB6 2-318 K299R limits assumed): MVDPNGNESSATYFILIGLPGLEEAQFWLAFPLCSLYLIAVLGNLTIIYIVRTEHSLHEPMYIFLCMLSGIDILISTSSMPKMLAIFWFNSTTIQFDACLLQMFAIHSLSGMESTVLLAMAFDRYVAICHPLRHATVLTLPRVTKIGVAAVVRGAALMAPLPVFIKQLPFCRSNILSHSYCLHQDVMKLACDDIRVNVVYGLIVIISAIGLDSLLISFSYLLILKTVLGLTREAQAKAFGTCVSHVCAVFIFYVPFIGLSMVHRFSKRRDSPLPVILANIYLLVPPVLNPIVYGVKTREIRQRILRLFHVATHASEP
# ASSAY METHOD TEXT: Butyric acid olfactory receptor antagonist cell-based inhibitory dose-response assay
# CONDITION NOTES: Table 4; butyric acid at EC94
Please respond with reported Inhibition (%) for every item in the list.
Quick reminder: number only, in %, skip the unit.

Find the recorded Inhibition (%) belonging to CC(=O)OC(C1C(C)C=C(C)CC1C)C(C)(C)C (centres unmarked) and report it.
89

// same read-out, input: CC1(C)CCCC2(CC=CC2)C1O (centres unmarked) [9,9-dimethylspiro[4.5]dec-2-en-10-ol]
91

Now consider COC1C(C)(C)CCCC12CC=CC2 (centres unmarked) and answer again.
33

Again, but for C=CCC1(C(C)C=C)CCCC(C)(C)C1=O (centres unmarked)
115

Thanks! And CC(=O)OC1C(C)(C)CCC12CC=CC2 (centres unmarked) ?
107
